Origin of values: BigSolDB 2.1

# experimental-conditions: in acetone, 292.8 K
readout-name: solubility (mole fraction)
// response body must contain only the number

Form: compound = CC(C)(C)NC[C@H](O)COc1nsnc1N1CCOCC1.O=C(O)/C=C\C(=O)O ; solubility (mole fraction) = 0.00065

---

# experimental-conditions: in dimethyl isosorbide, 282.6 K
readout-name: solubility (mole fraction)
// response body must contain only the number

Form: molecule = CC(C)(C)NC[C@H](O)COc1nsnc1N1CCOCC1.O=C(O)/C=C\C(=O)O ; solubility (mole fraction) = 0.00022

---

# experimental-conditions: in acetone, 301.9 K
readout-name: solubility (mole fraction)
// response body must contain only the number

Form: molecule = CC(C)(C)NC[C@H](O)COc1nsnc1N1CCOCC1.O=C(O)/C=C\C(=O)O ; solubility (mole fraction) = 0.00089

---

# experimental-conditions: in water, 293.1 K
readout-name: solubility (mole fraction)
// response body must contain only the number

Form: compound = CC(C)(C)NC[C@H](O)COc1nsnc1N1CCOCC1.O=C(O)/C=C\C(=O)O ; solubility (mole fraction) = 0.00277

---

# experimental-conditions: in dimethyl isosorbide, 297.5 K
readout-name: solubility (mole fraction)
// response body must contain only the number

Form: compound = CC(C)(C)NC[C@H](O)COc1nsnc1N1CCOCC1.O=C(O)/C=C\C(=O)O ; solubility (mole fraction) = 0.00052

---

# experimental-conditions: in isopropanol, 293.6 K
readout-name: solubility (mole fraction)
// response body must contain only the number

Form: compound = CC(C)(C)NC[C@H](O)COc1nsnc1N1CCOCC1.O=C(O)/C=C\C(=O)O ; solubility (mole fraction) = 0.00025

---

# experimental-conditions: in 2-methyltetrahydrofuran, 313.2 K
readout-name: solubility (mole fraction)
// response body must contain only the number

Form: molecule = CC(C)(C)NC[C@H](O)COc1nsnc1N1CCOCC1.O=C(O)/C=C\C(=O)O ; solubility (mole fraction) = 0.00038

---

# experimental-conditions: in water, 300.5 K
readout-name: solubility (mole fraction)
// response body must contain only the number

Form: molecule = CC(C)(C)NC[C@H](O)COc1nsnc1N1CCOCC1.O=C(O)/C=C\C(=O)O ; solubility (mole fraction) = 0.00319

---

# experimental-conditions: in cyrene, 301.1 K
readout-name: solubility (mole fraction)
// response body must contain only the number

Form: molecule = CC(C)(C)NC[C@H](O)COc1nsnc1N1CCOCC1.O=C(O)/C=C\C(=O)O ; solubility (mole fraction) = 0.00146

---

# experimental-conditions: in n-butanol, 309.1 K
readout-name: solubility (mole fraction)
// response body must contain only the number

Form: compound = CC(C)(C)NC[C@H](O)COc1nsnc1N1CCOCC1.O=C(O)/C=C\C(=O)O ; solubility (mole fraction) = 0.00102

---

# experimental-conditions: in isopropanol, 298.8 K
readout-name: solubility (mole fraction)
// response body must contain only the number

Form: compound = CC(C)(C)NC[C@H](O)COc1nsnc1N1CCOCC1.O=C(O)/C=C\C(=O)O ; solubility (mole fraction) = 0.00037

---

# experimental-conditions: in acetone, 288.3 K
readout-name: solubility (mole fraction)
// response body must contain only the number

Form: compound = CC(C)(C)NC[C@H](O)COc1nsnc1N1CCOCC1.O=C(O)/C=C\C(=O)O ; solubility (mole fraction) = 0.00056

---

# experimental-conditions: in n-butanol, 289.6 K
readout-name: solubility (mole fraction)
// response body must contain only the number

Form: molecule = CC(C)(C)NC[C@H](O)COc1nsnc1N1CCOCC1.O=C(O)/C=C\C(=O)O ; solubility (mole fraction) = 0.00049

---

# experimental-conditions: in isopropanol, 313.7 K
readout-name: solubility (mole fraction)

Form: molecule = CC(C)(C)NC[C@H](O)COc1nsnc1N1CCOCC1.O=C(O)/C=C\C(=O)O ; solubility (mole fraction) = 0.0006

---

# experimental-conditions: in ethanol, 322.7 K
readout-name: solubility (mole fraction)
// response body must contain only the number

Form: molecule = CC(C)(C)NC[C@H](O)COc1nsnc1N1CCOCC1.O=C(O)/C=C\C(=O)O ; solubility (mole fraction) = 0.00471

---

# experimental-conditions: in isopropanol, 282.9 K
readout-name: solubility (mole fraction)
// response body must contain only the number

Form: molecule = CC(C)(C)NC[C@H](O)COc1nsnc1N1CCOCC1.O=C(O)/C=C\C(=O)O ; solubility (mole fraction) = 0.00014

---

# experimental-conditions: in 2-methyltetrahydrofuran, 333.2 K
readout-name: solubility (mole fraction)
// response body must contain only the number

Form: compound = CC(C)(C)NC[C@H](O)COc1nsnc1N1CCOCC1.O=C(O)/C=C\C(=O)O ; solubility (mole fraction) = 0.0013

---

# experimental-conditions: in water, 286 K
readout-name: solubility (mole fraction)

Form: compound = CC(C)(C)NC[C@H](O)COc1nsnc1N1CCOCC1.O=C(O)/C=C\C(=O)O ; solubility (mole fraction) = 0.00245

---

# experimental-conditions: in 2-methyltetrahydrofuran, 303.2 K
readout-name: solubility (mole fraction)
// response body must contain only the number

Form: compound = CC(C)(C)NC[C@H](O)COc1nsnc1N1CCOCC1.O=C(O)/C=C\C(=O)O ; solubility (mole fraction) = 0.00017

---

# experimental-conditions: in cyrene, 323.7 K
readout-name: solubility (mole fraction)
// response body must contain only the number

Form: molecule = CC(C)(C)NC[C@H](O)COc1nsnc1N1CCOCC1.O=C(O)/C=C\C(=O)O ; solubility (mole fraction) = 0.00379

---

# experimental-conditions: in acetone, 313.3 K
readout-name: solubility (mole fraction)
// response body must contain only the number

Form: compound = CC(C)(C)NC[C@H](O)COc1nsnc1N1CCOCC1.O=C(O)/C=C\C(=O)O ; solubility (mole fraction) = 0.00121

---

# experimental-conditions: in ethanol, 290.8 K
readout-name: solubility (mole fraction)
// response body must contain only the number

Form: compound = CC(C)(C)NC[C@H](O)COc1nsnc1N1CCOCC1.O=C(O)/C=C\C(=O)O ; solubility (mole fraction) = 0.00145

---

# experimental-conditions: in n-butanol, 278.3 K
readout-name: solubility (mole fraction)
// response body must contain only the number

Form: molecule = CC(C)(C)NC[C@H](O)COc1nsnc1N1CCOCC1.O=C(O)/C=C\C(=O)O ; solubility (mole fraction) = 0.00028

---

# experimental-conditions: in ethanol, 280.1 K
readout-name: solubility (mole fraction)
// response body must contain only the number

Form: compound = CC(C)(C)NC[C@H](O)COc1nsnc1N1CCOCC1.O=C(O)/C=C\C(=O)O ; solubility (mole fraction) = 0.00105

---

# experimental-conditions: in dimethyl isosorbide, 325.9 K
readout-name: solubility (mole fraction)
// response body must contain only the number

Form: compound = CC(C)(C)NC[C@H](O)COc1nsnc1N1CCOCC1.O=C(O)/C=C\C(=O)O ; solubility (mole fraction) = 0.00117

---

# experimental-conditions: in n-butanol, 305.1 K
readout-name: solubility (mole fraction)
// response body must contain only the number

Form: compound = CC(C)(C)NC[C@H](O)COc1nsnc1N1CCOCC1.O=C(O)/C=C\C(=O)O ; solubility (mole fraction) = 0.00087

---

# experimental-conditions: in ethanol, 285 K
readout-name: solubility (mole fraction)

Form: compound = CC(C)(C)NC[C@H](O)COc1nsnc1N1CCOCC1.O=C(O)/C=C\C(=O)O ; solubility (mole fraction) = 0.0012

---

# experimental-conditions: in water, 313.9 K
readout-name: solubility (mole fraction)
// response body must contain only the number

Form: compound = CC(C)(C)NC[C@H](O)COc1nsnc1N1CCOCC1.O=C(O)/C=C\C(=O)O ; solubility (mole fraction) = 0.00449

---

# experimental-conditions: in ethanol, 329.8 K
readout-name: solubility (mole fraction)
// response body must contain only the number

Form: compound = CC(C)(C)NC[C@H](O)COc1nsnc1N1CCOCC1.O=C(O)/C=C\C(=O)O ; solubility (mole fraction) = 0.00648

---

# experimental-conditions: in cyrene, 312.2 K
readout-name: solubility (mole fraction)
// response body must contain only the number

Form: compound = CC(C)(C)NC[C@H](O)COc1nsnc1N1CCOCC1.O=C(O)/C=C\C(=O)O ; solubility (mole fraction) = 0.0023

---

# experimental-conditions: in cyrene, 292.4 K
readout-name: solubility (mole fraction)

Form: compound = CC(C)(C)NC[C@H](O)COc1nsnc1N1CCOCC1.O=C(O)/C=C\C(=O)O ; solubility (mole fraction) = 0.001

---

# experimental-conditions: in dimethyl isosorbide, 330.9 K
readout-name: solubility (mole fraction)
// response body must contain only the number

Form: molecule = CC(C)(C)NC[C@H](O)COc1nsnc1N1CCOCC1.O=C(O)/C=C\C(=O)O ; solubility (mole fraction) = 0.00151

---

# experimental-conditions: in water, 325.8 K
readout-name: solubility (mole fraction)
// response body must contain only the number

Form: molecule = CC(C)(C)NC[C@H](O)COc1nsnc1N1CCOCC1.O=C(O)/C=C\C(=O)O ; solubility (mole fraction) = 0.00694
